# Protocol summary: Solubility test in water (HPLC, external standard method)
# Format: physicochemical
# Stated conditions: thermodynamic from solid
# Protocol: Experimental method: Refer to the high-performance liquid chromatography method (Chinese Pharmacopoeia, 2020 Edition, Part Four, General Rule 0512) for determination. a. Take approximately 1-2 mg of the compound, and place it in a 10 ml volumetric flask. […] b. Take approximately amount of the reference substance, add solvent (DMSO: methanol=10:90) to dissolve and dilute it quantitatively to produce a solution containing 0.1 mg per 1 ml as the reference substance solution. […]
Readout type: solubility at 30 min (µg/mL)
Hi! Could you send only the number? It should be in µg/mL, unit omitted.

Request: // lookup solubility at 30 min for N#C[C@@]1(c2ccc3c(N)ncnn23)O[C@H](CO)[C@@H](O)[C@H]1O
Result: 50
